// pKd lookup, one value per entry
Target or test system: T1, LNX2_2, Q8N448
T1 sequence (Q8N448 334-432, limits assumed, looked up): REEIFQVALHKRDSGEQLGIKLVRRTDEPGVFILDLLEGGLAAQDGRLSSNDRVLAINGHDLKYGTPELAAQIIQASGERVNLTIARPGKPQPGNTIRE
Test method notes: holdup assay
Parameters: key: below the threshold = too weak to quantify, mostly under pKd 3.1 to 4
Test context: plain residues with an end cap or a label only (N-terminal biotin on a linker: ado-ado)
// no unit string in output, number only

The following binders have reported results that may help.
GQNMTVSVVI [PRLHR, P49683]: 5.11
RGKNRRQSIF [CDK18, Q07002]: 3.58
QKNKDREYYV [NRXN3, Q9HDB5]: 4.81

Read the next record carefully.
INPUT: Please report the recorded pKd for TKEIPNCTSV [SORCS3, Q9UPU3] .
OUTPUT: 4.52
